# Tested on: anaesthetised dog
# protocol.text: Anti-angina activity: haemodynamic effects in the anaesthetised dog
# Assay type: in vivo
# condition.info: Canis lupus familiaris, iv, 5 mg.kg^-1 intravenously, read-out: PULSE RATE Variation
# y = change in vivo at 5 mg/kg below -30% (exclusive); n = change in vivo at 5 mg/kg at/above -30%

Here's an entry: CC(C)COCC(CN(Cc1ccccc1)c1ccc(Cl)cc1)N1CCCC1 (centres unmarked) . Is its change in vivo at 5 mg/kg below -30%? n

Here's an entry: COc1ccc(N(Cc2ccccc2)CC(COCC(C)C)N2CCCC2)cc1 (centres unmarked) . Is its change in vivo at 5 mg/kg below -30%? n

Here's an entry: Cc1cccc(C)c1N(Cc1ccccc1)CC(COCC(C)C)N1CCCC1 (centres unmarked) . Is its change in vivo at 5 mg/kg below -30%? y

Here's an entry: CC(C)COCC(CN(Cc1ccccc1)c1ccc(Cl)c(Cl)c1)N1CCCC1 (centres unmarked) . Is its change in vivo at 5 mg/kg below -30%? n

Here's an entry: CC(C)COCC(CN(Cc1ccccc1)c1cccc(Cl)c1)N1CCCC1 (centres unmarked) . Is its change in vivo at 5 mg/kg below -30%? n

Here's an entry: CC(C)COCC(CN(Cc1ccccc1)c1cccc(C(F)(F)F)c1)N1CCCC1 (centres unmarked) . Is its change in vivo at 5 mg/kg below -30%? y

Here's an entry: CC(C)COCC(CN(Cc1ccccc1)c1ccc2c(c1)OCO2)N1CCCC1 (centres unmarked) . Is its change in vivo at 5 mg/kg below -30%? y

Here's an entry: CC(C)COCC(CN(Cc1ccccc1)c1cc(Cl)cc(Cl)c1)N1CCCC1 (centres unmarked) . Is its change in vivo at 5 mg/kg below -30%? n
